- measured.on: Toll-like receptor 2 (Homo sapiens)
- Sequence (O60603 whole entry): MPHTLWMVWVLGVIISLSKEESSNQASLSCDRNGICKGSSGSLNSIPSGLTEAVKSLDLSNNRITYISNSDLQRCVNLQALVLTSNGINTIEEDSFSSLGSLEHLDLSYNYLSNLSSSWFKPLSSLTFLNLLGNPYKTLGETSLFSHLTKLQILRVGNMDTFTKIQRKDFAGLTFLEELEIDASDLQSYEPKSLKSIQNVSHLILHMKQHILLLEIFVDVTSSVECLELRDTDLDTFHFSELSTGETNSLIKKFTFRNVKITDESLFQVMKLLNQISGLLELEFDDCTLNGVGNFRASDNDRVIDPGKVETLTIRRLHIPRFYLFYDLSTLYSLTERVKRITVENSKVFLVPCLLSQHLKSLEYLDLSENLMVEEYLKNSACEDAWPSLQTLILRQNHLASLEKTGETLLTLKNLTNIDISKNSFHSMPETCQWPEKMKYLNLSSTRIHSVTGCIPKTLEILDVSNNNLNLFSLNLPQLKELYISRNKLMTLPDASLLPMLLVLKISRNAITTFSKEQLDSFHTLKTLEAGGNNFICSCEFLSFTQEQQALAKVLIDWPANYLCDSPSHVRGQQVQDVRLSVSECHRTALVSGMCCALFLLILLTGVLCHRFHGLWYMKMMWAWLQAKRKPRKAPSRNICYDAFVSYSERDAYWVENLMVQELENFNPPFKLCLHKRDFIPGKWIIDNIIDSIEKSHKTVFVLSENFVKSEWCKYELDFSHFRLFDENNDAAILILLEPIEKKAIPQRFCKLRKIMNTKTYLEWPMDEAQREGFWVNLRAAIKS
- assay.notes: Agonist activity at human TLR2 expressed in HEK-Blue cells assessed as activation of SEAP incubated for 24 hrs by quanti-blue SEAP assay
- Type: cell-based
- setup.conditions: read-out: EC50
endpoint.name: EC50 (µM)

Worked cases, EC50 given:
• CCCOC(=O)c1c(NC(=O)N2CCN(C)CC2)sc2c1CCCC2 = 6.63
• CC(C)OC(=O)c1c(NC(=S)N2CCN(C)CC2)sc2c1CCCC2 = 45.2

[1] CCCOC(=O)c1c(NC(=O)N2CCN(C)CC2)sc2c1CCC2
[2] COC(=O)c1c(NC(=O)N2CCN(C)CC2)sc2c1CCCC2
I would appreciate it if you could say which entry, 1 or 2 , has the lower EC50 value. Indicate which entry you chose by stating its label. 2
(2: 0.16 µM, 1: 14.2 µM)

[A] CC(C)OC(=O)c1c(NC(=S)N2CCN(C)CC2)sc2c1CCC2
[B] CC(C)OC(=O)c1c(NC(=O)N2CCN(C)CC2)sc2c1CCC2
I would appreciate it if you could say which entry, A or B , has the lower EC50 value. Indicate which entry you chose by stating its label. B
(B: 4.59 µM, A: 16.4 µM)

----------
- measured.on: Toll-like receptor 2 (Homo sapiens)
- assay.notes: Agonist activity at human TLR2 expressed in HEK-Blue cells assessed as activation of SEAP incubated for 24 hrs by quanti-blue SEAP assay
- Format: cell-based
- setup.conditions: read-out: EC50
pEC50: −log10 of the molar value.
endpoint.name: pEC50

• COC(=O)c1c(NC(=O)N2CCN(C)CC2)sc2c1CCC(C)C2 (stereo not drawn) = 4.93
• CCOC(=O)c1c(NC(=S)N2CCN(C)CC2)sc2c1CCCC2 = 5.19
• COC(=O)c1c(NC(=O)N2CCN(C)CC2)sc2c1CCC2 = 6.35

[I] CCOC(=O)c1c(NC(=O)N2CCN(C)CC2)sc2c1CCCC2
[II] CCOC(=O)c1c(NC(=O)N2CCN(CC)CC2)sc2c1CCC2
[III] CCOC(=O)c1c(NC(=O)N2CCN(C)CC2)sc2c1CCC2
[IV] CCOC(=O)c1c(NC(=S)N2CCN(C)CC2)sc2c1CCC2
[V] COC(=O)c1c(NC(=O)N2CCN(C)CC2)sc2c1CCCCC2
Place the items in sequence of falling pEC50. Answer by writing out the labels in the requested order. I, III, V, IV, II

----------
- measured.on: Toll-like receptor 2 (Homo sapiens)
- assay.notes: Agonist activity at human TLR2 expressed in HEK-Blue cells assessed as activation of SEAP incubated for 24 hrs by quanti-blue SEAP assay
- Type: cell-based
endpoint.name: EC50

* CCOC(=O)c1c(NC(=O)N2CCN(CCO)CC2)sc2c1CCC2 | Not Active
* CCOC(=O)c1c(NC(=O)N2CCCCC2)sc2c1CCC2 | Not Active
* CC(C)OC(=O)c1c(NC(=O)N2CCN(c3ccccc3)CC2)sc2c1CCC2 | Not Active
* CCOC(=O)c1c(NC(=O)N2CCN(C(C)=O)CC2)sc2c1CCC2 | Not Active
* CCCCCC1CCc2c(sc(NC(=O)N3CCN(C)CC3)c2C(=O)OC)C1 (stereo not given) | Not Active
* CCOC(=O)c1c(NC(=O)N2CCOCC2)sc2c1CCC2 | Not Active
* CCCOC(=O)c1c(NC(=S)N2CCN(C)CC2)sc2c1CCCC2 | Not Active
* CC(C)OC(=O)c1c(NC(=S)N2CCN(C)CC2)sc2c1CCCCC2 | Not Active
* CCOC(=O)c1c(NC(=S)N2CCN(c3ccccc3)CC2)sc2c1CCC2 | Not Active
* CC(=O)N1CCN(C(=S)Nc2sc3c(c2C(=O)OC(C)C)CCC3)CC1 | Not Active

Would you kindly share the measured EC50 for "CN1CCN(C(=O)Nc2sc3c(c2C(=O)O)CCC3)CC1" ? Not Active

Same lookup for "CC(C)OC(=O)c1c(NC(=S)N2CCNCC2)sc2c1CCC2" , please. Not Active

Same lookup for "CCN1CCN(C(=O)Nc2sc3c(c2C(=O)OC(C)C)CCC3)CC1" , please. Not Active

Same lookup for "CCOC(=O)c1c(NC(=S)N2CCN(C(C)=O)CC2)sc2c1CCC2" , please. Not Active

Same lookup for "CC(C)OC(=O)c1c(NC(=S)N2CCN(c3ccccc3)CC2)sc2c1CCC2" , please. Not Active

Just for reference, ChEMBL document CHEMBL4346656 is where these values come from.
